Biological target: human neutrophil elastase (HNE) (Homo sapiens)
Sequence (P08246 30-267): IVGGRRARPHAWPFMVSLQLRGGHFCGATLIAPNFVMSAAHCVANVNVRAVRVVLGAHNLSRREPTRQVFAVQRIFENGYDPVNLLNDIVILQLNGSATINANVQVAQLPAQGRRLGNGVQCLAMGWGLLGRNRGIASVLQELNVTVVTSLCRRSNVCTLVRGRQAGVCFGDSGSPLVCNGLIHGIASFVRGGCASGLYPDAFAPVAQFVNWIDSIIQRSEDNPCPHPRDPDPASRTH
Assay: Fluorometric human neutrophil elastase (HNE) inhibition assay, MOSuc-AAPV-AMC substrate
Conditions: HNE 20 mU/mL, 25 µM substrate, 0.1 M HEPES pH 7.5, 25 °C, triplicate; read-out: IC50 ± SD, elastase inhibitory activity
Listing of recorded IC50 by entry.

Compound	Measurement unit	IC50
NS(=O)(=O)c1ccc(Nc2nc(CCN3C(=O)c4ccccc4C3=O)cs2)cc1 [Compound 4g]	µM	64.9
Cc1cc(C)cc(Nc2nc(CCN3C(=O)c4ccccc4C3=O)cs2)c1 [Compound 4f]	µM	49.9
O=C1c2ccccc2C(=O)N1CCc1csc(Nc2cccc3ccccc23)n1 [Compound 4e]	µM	15.6
COc1cc(Nc2nc(CCN3C(=O)c4ccccc4C3=O)cs2)cc(OC)c1OC [Compound 4d]	µM	22.9
C[C@H]1[C@H](C)CC[C@]2(C(=O)O)CC[C@]3(C)C(=CC[C@@H]4[C@@]5(C)CC[C@H](O)C(C)(C)[C@@H]5CC[C@]43C)[C@H]12 [Ursolic acid, reference compound]	µM	5.32
O=C1c2ccccc2C(=O)N1CCc1csc(Nc2ccc(Cl)cc2)n1 [Compound 4b]	µM	46.5
O=C1c2ccccc2C(=O)N1CCc1csc(Nc2ccc(C(F)(F)F)cc2)n1 [Compound 4c]	µM	13
O=C1c2ccccc2C(=O)N1CCc1csc(Nc2c(Cl)cc(Cl)cc2Cl)n1 [Compound 4h]	µM	16.6
CC(=O)c1ccc(Nc2nc(CCN3C(=O)c4ccccc4C3=O)cs2)cc1 [Compound 4i]	µM	25.6
O=C1c2ccccc2C(=O)N1CCc1csc(Nc2ccc(F)cc2)n1 [Compound 4a]	µM	29.4
